Target: T1, full-length human GIPR with an N-terminal FLAG tag (human, UniProt P48546 22-466)
T1 sequence (looked up): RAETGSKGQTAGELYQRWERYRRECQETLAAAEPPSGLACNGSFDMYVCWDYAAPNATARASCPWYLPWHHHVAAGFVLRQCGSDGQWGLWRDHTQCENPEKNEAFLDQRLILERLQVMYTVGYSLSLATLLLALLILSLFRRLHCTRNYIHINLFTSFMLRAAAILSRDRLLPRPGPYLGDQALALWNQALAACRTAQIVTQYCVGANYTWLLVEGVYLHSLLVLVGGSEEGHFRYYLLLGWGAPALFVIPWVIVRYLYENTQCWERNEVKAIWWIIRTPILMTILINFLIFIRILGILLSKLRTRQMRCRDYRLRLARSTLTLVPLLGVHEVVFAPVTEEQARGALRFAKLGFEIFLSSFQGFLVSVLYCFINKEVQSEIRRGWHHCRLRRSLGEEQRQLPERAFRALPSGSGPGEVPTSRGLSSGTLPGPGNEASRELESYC
Assay: cell-based or functional assay
Starred links: 1 amine or outer side, 2 acyl side, 3 side chain; linkers in the order of their positions; H or OH if unused. Non-standard residues stand in square brackets, D forms with d. Groups on a side chain read outwards from the residue. No end group written: not given here. *: point of attachment. C15 diacid = O=C(O)CCCCCCCCCCCCCC(=O)*; γGlu = O=C(O)[C@H](CCC(=O)[*:2])N[*:1]; NMeY = CN[C@@H](Cc1ccc(O)cc1)C(=O)O; AEEA = NCCOCCOCC(=O)O; Aib = CC(C)(N)C(=O)O
Each entry below lists one item and its recorded Human GIPR cAMP, HEK293T EC50 value.
The reply should contain only the number, in pM.

Query [NMeY][Aib]EGTFISDYSIALDRIHQK([AEEA-AEEA-γGlu-C15 diacid])NFVNWLLAQK (also: Me-Tyr methyl position not given here) [Compound 5] yields Human GIPR cAMP, HEK293T EC50 of 0.8
